Experiment: In vivo pharmacokinetics in infected mice (plasma, LC-MS/MS)
Design: species or system BALB/c mice
Settings: BALB/c, mouse, plasma, po, 50 mg/kg, Group 1 triplet CFZ 20/BDQ 25/PA824 50 mg/kg oral; steady state, infected mice; read-out: Cmax in Triplet
Protocol: The drugs were formulated in 0.5% hydroxypropyl methyl cellulose (HPMC)–0.1% Tween 80 suspensions as 3- or 4-drug combinations. Formulations were prepared by weighing and adding each compound to the bottle, according to the design. Formulation vehicle was added, and the suspension was stirred overnight. Only uniform suspensions were used, while those that precipitated were abandoned. Formulations were prepared every week, and compound stability was estimated at the end of the week. […]
measurement.type: Cmax (ng/mL)
The reply should be a number in ng/mL, with the unit left off.

Report Cmax for "COc1nc2ccc(Br)cc2cc1[C@@H](c1ccccc1)[C@@](O)(CCN(C)C)c1cccc2ccccc12" please. 1600

Endpoint output: Cmax of "O=[N+]([O-])c1cn2c(n1)OC[C@@H](OCc1ccc(OC(F)(F)F)cc1)C2" . Value? 11200

I'd like to know its Cmax. The compound in question is "CC(C)/N=c1\cc2n(-c3ccc(Cl)cc3)c3ccccc3nc-2cc1Nc1ccc(Cl)cc1" 2300

----------
Assay: In vivo pharmacokinetics in infected mice (plasma, LC-MS/MS)
Parameters: species or system BALB/c mice
Conditions: BALB/c, mouse, plasma, po, 150 mg/kg, Group 6 quartet BTZ043 37.5/THI 800/SQ109 25/PZA 150 mg/kg oral; steady state, infected mice; read-out: Cmax in Quartet
Provide the recorded Cmax for the entries that follow.
Entry format: amount then unit.

# query: Cmax of entry CC(=O)Nc1ccc(/C=N/NC(N)=S)cc1 [Thiacetazone] 5100 ng/mL

What value of measured Cmax is listed for CC(C)=CCC/C(C)=C/CNCCNC1C2CC3CC(C2)CC1C3 (stereo not drawn) [SQ109] ? 3100 ng/mL

Query: Cmax; subject: NC(=O)c1cnccn1 [Pyrazinamide] 40200 ng/mL

----------
Experiment: In vivo pharmacokinetics in infected mice (plasma, LC-MS/MS)
Parameters: species or system BALB/c mice
Conditions: BALB/c, mouse, plasma, oral; SQ109 25 mg/kg, EMB 100 mg/kg, in 3- and 4-drug combinations; read-out: observed AUC in combinations
measurement.type: AUC

Returns the measured AUC for the input molecule. Input: CC(C)=CCC/C(C)=C/CNCCNC1C2CC3CC(C2)CC1C3 (centres unmarked) 2000 to 8900 ng·h/mL

Bench note: what AUC did "CC[C@@H](CO)NCCN[C@@H](CC)CO" show? 4000 to 9900 ng·h/mL

----------
Experiment: In vivo pharmacokinetics in infected mice (plasma, LC-MS/MS)
Parameters: species or system BALB/c mice
Conditions: BALB/c, mouse, plasma, po, 150 mg/kg, Group 2 quartet SQ109 25/BDQ 25/PA824 50/PZA 150 mg/kg oral; steady state, infected mice; read-out: Cmax in Quartet
Would you kindly list Cmax for each of these molecules?
Numbers only; they are read as µg/mL.

Name the reported Cmax value associated with the molecule CC(C)=CCC/C(C)=C/CNCCNC1C2CC3CC(C2)CC1C3 (stereo not shown) 3.5

Endpoint output: Cmax of "COc1nc2ccc(Br)cc2cc1[C@@H](c1ccccc1)[C@@](O)(CCN(C)C)c1cccc2ccccc12" . Value? 2.3

Any idea what its Cmax is? The molecule is "O=[N+]([O-])c1cn2c(n1)OC[C@@H](OCc1ccc(OC(F)(F)F)cc1)C2" 7.3

May I ask what Cmax has been recorded for NC(=O)c1cnccn1 [Pyrazinamide] ? 64.5
